Listed here: items and their measured % cells E6 tet+/CD8+ quadrant.
Target: T1, HLA-A2/E6(29-38) tetramer (human; HPV 16)
T1 construct: also called E6(29-38) peptide-MHC tetramer; E6 tet
Assay: flow cytometry, tetramer + anti-CD8; transfected mix of CD8- and CD8+ Jurkat-derived cells;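 note: CD4+ and CD4+/CD8+ cell mixtures transiently given TCR plasmids, analysed 48 h post-transfection by flow cytometry with E6(29-38)–HLA-A*02:01 tetramer plus anti-CD8 antibody co-stain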
Observed property: % cells E6 tet+/CD8+ quadrant

| Binder | Reported |
| --- | --- |
| TCR 18 (codon-optimized, cysteine-modified) (TCR, V domains shown) V domain 1: KQEVTQIPAALSVPEGENLVLNCSFTDSAIYNLQWFRQDPGKGLTSLLLIQSSQREQTSGRLNASLDKSSGRSTLYIAASQPGDSATYLCAEGNAGGTSYGKLTFGQGTILTVHP V domain 2: DVKVTQSSRYLVKRTGEKVFLECVQDMDHENMFWYRQDPGLGLRLIYFSYDVKMKEKGDIPEGYSVSREKKERFSLILESASTNQTSMYLCASSFWGRSNSPLHFGNGTRLTVTE | 23.3% |
| TCR 29 (codon-optimized, cysteine-modified) (TCR, V domains shown) V domain 1: AQKITQTQPGMFVQEKEAVTLDCTYDTSDQSYGLFWYKQPSSGEMIFLIYQGSYDEQNATEGRYSLNFQKARKSANLVISASQLGDSAMYFCAMRLNTGTASKLTFGTGTRLQVTL V domain 2: DGGITQSPKYLFRKEGQNVTLSCEQNLNHDAMYWYRQDPGQGLRLIYYSQIVNDFQKGDIAEGYSVSREKKESFPLTVTSAQKNPTAFYLCASSPWGRATNEQFFGPGTRLTVLE | 35.6% |
| TCR 17 (codon-optimized, cysteine-modified) (TCR, V domains shown) V domain 1: AQKITQTQPGMFVQEKEAVTLDCTYDTSDPSYGLFWYKQPSSGEMIFLIYQGSYDQQNATEGRYSLNFQKARKSANLVISASQLGDSAMYFCAMREGRGDKIIFGKGTRLHILP V domain 2: DVKVTQSSRYLVKRTGEKVFLECVQDMDHENMFWYRQDPGLGLRLIYFSYDVKMKEKGDIPEGYSVSREKKERFSLILESASTNQTSMYLCASSLWGRSNQPQHFGDGTRLSILE | 36.2% |
| TCR 27 (codon-optimized, cysteine-modified) (TCR, V domains shown) V domain 1: DAKTTQPNSMESNEEEPVHLPCNHSTISGTDYIHWYRQLPSQGPEYVIHGLTSNVNNRMASLAIAEDRKSSTLILHRATLRDAAVYYCILRVPPQSGGYQKVTFGTGTKLQVIP V domain 2: NAGVTQTPKFQVLKTGQSMTLQCAQDMNHNSMYWYRQDPGMGLRLIYYSASEGTTDKGEVPNGYNVSRLNKREFSLRLESAAPSQTSVYFCASSEFGSLNEKLFFGSGTQLSVLE | 15.8% |
